Measured Kd by item
TARGET OR TEST SYSTEM: T1, human Protein S (human, UniProt P07225 42-676)
T1 construct: also called ProS; ProS1
T1 sequence: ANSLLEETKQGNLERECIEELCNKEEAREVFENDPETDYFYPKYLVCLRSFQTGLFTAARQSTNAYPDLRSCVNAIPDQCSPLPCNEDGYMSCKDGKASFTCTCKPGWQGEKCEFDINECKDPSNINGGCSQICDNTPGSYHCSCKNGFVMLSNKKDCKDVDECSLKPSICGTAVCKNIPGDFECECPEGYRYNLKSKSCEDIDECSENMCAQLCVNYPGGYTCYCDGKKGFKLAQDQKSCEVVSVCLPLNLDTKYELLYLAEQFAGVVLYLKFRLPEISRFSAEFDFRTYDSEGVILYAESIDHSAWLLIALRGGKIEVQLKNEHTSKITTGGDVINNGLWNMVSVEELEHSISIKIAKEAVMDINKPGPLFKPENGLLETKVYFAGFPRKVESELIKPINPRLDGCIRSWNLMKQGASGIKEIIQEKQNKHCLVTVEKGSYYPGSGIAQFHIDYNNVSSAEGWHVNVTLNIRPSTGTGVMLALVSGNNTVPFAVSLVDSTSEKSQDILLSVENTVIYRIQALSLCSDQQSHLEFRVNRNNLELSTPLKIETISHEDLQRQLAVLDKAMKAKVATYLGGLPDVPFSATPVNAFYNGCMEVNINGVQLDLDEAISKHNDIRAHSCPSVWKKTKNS
PROTOCOL DESCRIPTION: BLI Octet; antibody on anti-human Fc probe; Protein S 7.81-500 nM; 4 mM CaCl2
Form entry: value (nM) — number only.

query: I have this binder here, Antibody 29 (antibody, V domains shown, Same variable regions as Antibody 35) VH: QLQLQESGPGLVKPSETLSLTCTVSGGSITNSNYYWGWIRQPPGKGLEWIGSVYYSGTTYYNPSLKSRVTISVDPSKNQFSLKLSSVTAADTAVYYCVRESESYYYYGSDVWGQGTTVTVSS VL: DIQMTQSPSSLSASVGDRVTITCRASQGINNYLAWFQQKPGKAPKSLIYAASSLQSGVPSKFSGSGSGTDFTLTISSLQPEDFATYYCQQYNSYPRTFGQGTKVEIK , and I need its recorded Kd.
result: 21.1

query: I have this binder here, Antibody 12 (antibody, V domains shown, Same variable regions as Antibody 24) VH: QVQLQESGPGLVKPSETLSLTCGVSGGSISSTNWWSWVRQPPGKGLEWIGEIYQTGSTDYDPSLKSRVTISIDKSKNQFSLKLYSVTAADTAVYYCARRFGELDYWGQGTLVTVSS VL: EIVMTQSPATLSVSPGERATLSCRASQSVTSNLAWYQQKPGQAPRLLIYDASTRATGIPARFSGSGSGTEFTLTISSLQSEDFAIYYCQQYNNWPTFGQGTRLEIK , and I need its recorded Kd.
result: 7.49

More entries:
query: Param item = Antibody 8 (antibody, V domains shown, Same variable regions as Antibody 20) VH: QVQLQESGPGLVKPSETLSLTCAVSGYSISSGYYWGWIRQPPGKGLDWIGSIYYSGSTYYNPSLKSRVTISVDTSKNQISLKLSSVTAADTAVYYCATTYSDIVTGYYNDAFDIWGQGTMVTVSS VL: EIVMTQSPATLSVSPGERATLSCRASQRINSNLAWYQQKPGQAPRLLIYGASTRATGIPARFSGSGSGTEFTLTISSLQSEDFAAYYCQQYDNWPLTFGGGTKVEIK ; retrieve measured Kd.
result: 0.514
